Data credit: ChEMBL document CHEMBL3232945

Tested on: Rattus norvegicus
Assay: Toxicity in anesthetized-normotensive Wistar rat assessed as heart rate at 40 mg/kg, ip after 30 mins (reference value: 317.68 +/- 7.631 bpm)
Type: organism-based
Design: dose 40 mg/kg, route intraperitoneal
Conditions: in vivo, 0.5 h
Give Activity for every item shown.
Numeric answer only, unit bpm assumed.

Sample O=C1/C(=C\c2ccccc2)S/C(=N\c2ccccc2)N1CC(O)CN1CCC(C(O)(c2ccccc2)c2ccccc2)CC1 (centres undefined) — what was its Activity?
279.31

Sample O=C1/C(=C\c2ccccc2)S/C(=N\c2ccccc2)N1CC(O)CN1CCCCC1 (centres undefined) — what was its Activity?
268.74

Sample CCCCN(CCCC)CC(O)CN1C(=O)/C(=C\c2ccccc2)S/C1=N\c1ccccc1 (centres undefined) — what was its Activity?
276.46

Sample O=C1/C(=C\c2ccccc2)S/C(=N\c2ccccc2)N1CC(O)CN1CCOCC1 (centres undefined) — what was its Activity?
293.54

Sample CCN(CC)CC(O)CN1C(=O)/C(=C\c2ccccc2)S/C1=N\c1ccccc1 (centres undefined) — what was its Activity?
274.66

Sample O=C1/C(=C\c2ccccc2)S/C(=N\c2ccccc2)N1CC(O)CN1CCCC1 (centres undefined) — what was its Activity?
256.85

Sample CCCN(CCC)CC(O)CN1C(=O)/C(=C\c2ccccc2)S/C1=N\c1ccccc1 (centres undefined) — what was its Activity?
289.52

Sample O=C1/C(=C\c2ccccc2)S/C(=N\c2ccccc2)N1CC(O)CN(c1ccccc1)c1ccccc1 (centres undefined) — what was its Activity?
292.41

Sample O=C1/C(=C\c2ccccc2)S/C(=N\c2ccccc2)N1CC(O)CN1CCN(C2CCCCC2)CC1 (centres undefined) — what was its Activity?
289.54

* * *

System: Rattus norvegicus
Test: Toxicity in anaesthetized-Wistar rat assessed as QRS ECG interval at 40 mg/kg, ip after 45 mins (reference value: 20.2 +/- 1.348 ms)
Type: organism-based
Parameters: dose 40 mg/kg, route intraperitoneal
Conditions: in vivo, 0.75 h
measured.attribute: Activity (min)
Numeric answer only, unit min assumed.

Sample CCCN(CCC)CC(O)CN1C(=O)/C(=C\c2ccccc2)S/C1=N\c1ccccc1 (centres undefined) — what was its Activity?
24.1

Sample O=C1/C(=C\c2ccccc2)S/C(=N\c2ccccc2)N1CC(O)CN1CCNCC1 (centres undefined) — what was its Activity?
23.7

Sample CCN(CC)CC(O)CN1C(=O)/C(=C\c2ccccc2)S/C1=N\c1ccccc1 (centres undefined) — what was its Activity?
20.6

Sample O=C1/C(=C\c2ccccc2)S/C(=N\c2ccccc2)N1CC(O)CN1CCN(C2CCCCC2)CC1 (centres undefined) — what was its Activity?
22.8

Sample O=C1/C(=C\c2ccccc2)S/C(=N\c2ccccc2)N1CC(O)CN1CCCC1 (centres undefined) — what was its Activity?
21.1

Sample CC(C)N1CCN(CC(O)CN2C(=O)/C(=C\c3ccccc3)S/C2=N\c2ccccc2)CC1 (centres undefined) — what was its Activity?
24.6

Sample CN1CCN(CC(O)CN2C(=O)/C(=C\c3ccccc3)S/C2=N\c2ccccc2)CC1 (centres undefined) — what was its Activity?
23.6

Sample O=C1/C(=C\c2ccccc2)S/C(=N\c2ccccc2)N1CC(O)CN1CCOCC1 (centres undefined) — what was its Activity?
23.1

Sample O=C1/C(=C\c2ccccc2)S/C(=N\c2ccccc2)N1CC(O)CN1CCN(Cc2ccccc2)CC1 (centres undefined) — what was its Activity?
23.1

* * *

Test system: Rattus norvegicus
Assay: Antihypertensive activity in Wistar rat assessed as mean arterial pressure at 40 mg/kg, ip after 15 mins (reference value: 195.68 +/- 1.623 mmHg)
Format: functional, Artery
Settings: route intraperitoneal
Give Activity for every item shown.

Find Activity (Rattus norvegicus) for the entry CCCCN(CCCC)CC(O)CN1C(=O)/C(=C\c2ccccc2)S/C1=N\c1ccccc1 (centres undefined)
171.43 mmHg

Find Activity (Rattus norvegicus) for the entry O=C1/C(=C\c2ccccc2)S/C(=N\c2ccccc2)N1CC(O)CN1CCOCC1 (centres undefined)
175.31 mmHg

Find Activity (Rattus norvegicus) for the entry O=C1/C(=C\c2ccccc2)S/C(=N\c2ccccc2)N1CC(O)CN1CCCC1 (centres undefined)
165.01 mmHg

Find Activity (Rattus norvegicus) for the entry O=C1/C(=C\c2ccccc2)S/C(=N\c2ccccc2)N1CC(O)CN1CCN(C2CCCCC2)CC1 (centres undefined)
185.69 mmHg

Find Activity (Rattus norvegicus) for the entry O=C1/C(=C\c2ccccc2)S/C(=N\c2ccccc2)N1CC(O)CN1CCNCC1 (centres undefined)
176.65 mmHg

Find Activity (Rattus norvegicus) for the entry CCCN(CCC)CC(O)CN1C(=O)/C(=C\c2ccccc2)S/C1=N\c1ccccc1 (centres undefined)
184.76 mmHg

Find Activity (Rattus norvegicus) for the entry CN1CCN(CC(O)CN2C(=O)/C(=C\c3ccccc3)S/C2=N\c2ccccc2)CC1 (centres undefined)
182.76 mmHg

Find Activity (Rattus norvegicus) for the entry O=C1/C(=C\c2ccccc2)S/C(=N\c2ccccc2)N1CC(O)CN1CCC(C(O)(c2ccccc2)c2ccccc2)CC1 (centres undefined)
176.43 mmHg

Find Activity (Rattus norvegicus) for the entry O=C1/C(=C\c2ccccc2)S/C(=N\c2ccccc2)N1CC(O)CN1CCN(c2ccccc2)CC1 (centres undefined)
180.43 mmHg

* * *

Test system: Rattus norvegicus
Assay: Toxicity in […] normotensive Wistar rat assessed as mean arterial pressure at 40 mg/kg, ip after 45 mins (reference value: 94.83 +/- 0.943 mmHg)
Assay type: organism-based, Artery
Set-up: dose 40 mg/kg, route intraperitoneal
Conditions: in vivo, 0.75 h
measured.attribute: Activity

Sample O=C1/C(=C\c2ccccc2)S/C(=N\c2ccccc2)N1CC(O)CN(c1ccccc1)c1ccccc1 (stereo not given) — what was its Activity?
85.43 mmHg

Sample O=C1/C(=C\c2ccccc2)S/C(=N\c2ccccc2)N1CC(O)CN1CCC(C(O)(c2ccccc2)c2ccccc2)CC1 (stereo not given) — what was its Activity?
64.53 mmHg

Sample CC(C)N1CCN(CC(O)CN2C(=O)/C(=C\c3ccccc3)S/C2=N\c2ccccc2)CC1 (stereo not given) — what was its Activity?
65.43 mmHg

Sample CCCCN(CCCC)CC(O)CN1C(=O)/C(=C\c2ccccc2)S/C1=N\c1ccccc1 (stereo not given) — what was its Activity?
80.16 mmHg

Sample O=C1/C(=C\c2ccccc2)S/C(=N\c2ccccc2)N1CC(O)CN1CCNCC1 (stereo not given) — what was its Activity?
62.53 mmHg

* * *

Tested on: Rattus norvegicus
Experiment: Toxicity in […] normotensive Wistar rat assessed as mean arterial pressure at 40 mg/kg, ip after 60 mins (reference value: 95.07 +/- 1.973 mmHg)
Type: organism-based, Artery
Parameters: dose 40 mg/kg, route intraperitoneal
Conditions: in vivo, 1 h
measured.attribute: Activity (mmHg)
Numeric answer only, unit mmHg assumed.

Sample O=C1/C(=C\c2ccccc2)S/C(=N\c2ccccc2)N1CC(O)CN1CCN(C2CCCCC2)CC1 (centres undefined) — what was its Activity?
75.43

Sample O=C1/C(=C\c2ccccc2)S/C(=N\c2ccccc2)N1CC(O)CN1CCC(C(O)(c2ccccc2)c2ccccc2)CC1 (centres undefined) — what was its Activity?
71.94

Sample CCN(CC)CC(O)CN1C(=O)/C(=C\c2ccccc2)S/C1=N\c1ccccc1 (centres undefined) — what was its Activity?
73.31

Sample O=C1/C(=C\c2ccccc2)S/C(=N\c2ccccc2)N1CC(O)CN1CCN(c2ccccc2)CC1 (centres undefined) — what was its Activity?
83.55

Sample CC(C)N1CCN(CC(O)CN2C(=O)/C(=C\c3ccccc3)S/C2=N\c2ccccc2)CC1 (centres undefined) — what was its Activity?
76.27

Sample O=C1/C(=C\c2ccccc2)S/C(=N\c2ccccc2)N1CC(O)CN1CCCCC1 (centres undefined) — what was its Activity?
76.12

Sample O=C1/C(=C\c2ccccc2)S/C(=N\c2ccccc2)N1CC(O)CN1CCCC1 (centres undefined) — what was its Activity?
73.12

Sample O=C1/C(=C\c2ccccc2)S/C(=N\c2ccccc2)N1CC(O)CN1CCOCC1 (centres undefined) — what was its Activity?
71.43

Sample O=C1/C(=C\c2ccccc2)S/C(=N\c2ccccc2)N1CC(O)CN1CCN(Cc2ccccc2)CC1 (centres undefined) — what was its Activity?
85.44

* * *

System: Rattus norvegicus
Assay: Toxicity in anaesthetized-Wistar rat assessed as P-Q ECG interval at 40 mg/kg, ip measured immediately at 0 min (reference value: 52.4 +/- 0.927 ms)
Format: organism-based
Parameters: dose 40 mg/kg, route intraperitoneal
Settings: in vivo, 0 h
measured.attribute: Activity (ms)
Numeric answer only, unit ms assumed.

Sample O=C1/C(=C\c2ccccc2)S/C(=N\c2ccccc2)N1CC(O)CN1CCCCC1 (centres undefined) — what was its Activity?
52.2

Sample CCN(CC)CC(O)CN1C(=O)/C(=C\c2ccccc2)S/C1=N\c1ccccc1 (centres undefined) — what was its Activity?
52

Sample O=C1/C(=C\c2ccccc2)S/C(=N\c2ccccc2)N1CC(O)CN1CCN(Cc2ccccc2)CC1 (centres undefined) — what was its Activity?
49.8

Sample O=C1/C(=C\c2ccccc2)S/C(=N\c2ccccc2)N1CC(O)CN1CCNCC1 (centres undefined) — what was its Activity?
54.3

Sample O=C1/C(=C\c2ccccc2)S/C(=N\c2ccccc2)N1CC(O)CN1CCOCC1 (centres undefined) — what was its Activity?
49.9

Sample CN1CCN(CC(O)CN2C(=O)/C(=C\c3ccccc3)S/C2=N\c2ccccc2)CC1 (centres undefined) — what was its Activity?
53

Sample O=C1/C(=C\c2ccccc2)S/C(=N\c2ccccc2)N1CC(O)CN1CCN(C2CCCCC2)CC1 (centres undefined) — what was its Activity?
51.2

Sample CCCCN(CCCC)CC(O)CN1C(=O)/C(=C\c2ccccc2)S/C1=N\c1ccccc1 (centres undefined) — what was its Activity?
53.5

Sample O=C1/C(=C\c2ccccc2)S/C(=N\c2ccccc2)N1CC(O)CN1CCCC1 (centres undefined) — what was its Activity?
50.2

Sample O=C1/C(=C\c2ccccc2)S/C(=N\c2ccccc2)N1CC(O)CN1CCC(C(O)(c2ccccc2)c2ccccc2)CC1 (centres undefined) — what was its Activity?
49.8

Sample CC(C)N1CCN(CC(O)CN2C(=O)/C(=C\c3ccccc3)S/C2=N\c2ccccc2)CC1 (centres undefined) — what was its Activity?
53.5

Sample O=C1/C(=C\c2ccccc2)S/C(=N\c2ccccc2)N1CC(O)CN1CCN(c2ccccc2)CC1 (centres undefined) — what was its Activity?
52.4

Sample CCCN(CCC)CC(O)CN1C(=O)/C(=C\c2ccccc2)S/C1=N\c1ccccc1 (centres undefined) — what was its Activity?
49.4

Sample O=C1/C(=C\c2ccccc2)S/C(=N\c2ccccc2)N1CC(O)CN(c1ccccc1)c1ccccc1 (centres undefined) — what was its Activity?
50.6
